Listing of entries alongside the reported TGI.
# Test system: MOLT-4 leukemia
# Measurement Notes: NCI tumour cell line growth inhibition, 48 h

>>> result("Brc1ccc(C[P+]2(c3ccccc3)CCCCC2)cc1")
"> 100 µM"
>>> result("Cn1c(-c2c(N)n(Nc3cccc(Cl)c3)c3nc(C#N)c(C#N)nc23)nc2ccccc21")
"> 50 µM"
>>> result("C=C(CC(NC(=O)c1ccc(C(CC)Cc2cnc3nc(N)nc(N)c3n2)cc1)C(=O)O)C(=O)O (stereo unspecified)")
"> 100 µM"
>>> result("COC(=O)C1Cc2cc3c(cc2C1=O)CCCC3 (stereo unspecified)")
"> 100 µM"
>>> result("CCNC(=O)COc1ccc(Br)cc1Br")
"> 100 µM"

Now consider the entry below.
Quick note, TGI for O=C(/C=C/c1ccccc1)CSc1ncn[nH]1 landed at > 100 µM

----------
# Tested on: CAKI-1 renal
# Measurement Notes: NCI tumour cell line growth inhibition, 48 h; in the data active = GI50 below about 0.43 µM; inactive = the rest
Respond only with the outcome that fits, drawn from active, inactive

Past entries and their recorded results:
>>> cat("CCCCCCCCCCCCCCCCCC1=NC(C)(C)CN1CC(C)O (stereo not drawn)")
"inactive"
>>> cat("COc1cc2ncn(-c3cc(OCc4ccccc4C(F)(F)F)c(C(=O)N(C)C)s3)c2cc1OC")
"inactive"
>>> cat("CCOC(=O)Nc1nc2ccc(OC)cc2s1")
"inactive"

Q: How was CCNc1cc(-c2cccc(OC(F)(F)F)c2)nc2ccc(N3CCCC3)cc12 classified in this test?
Result: inactive

Q: // return assay outcome for COc1ccc2c(=O)cc(-c3ccccc3)[nH]c2c1
Result: active

Q: For this compound, state the assay outcome: Cc1nc(-c2ccccc2)n2nc(NCCCN3CCOCC3)ncc12
Result: inactive

Q: Answer briefly: the call reported for CS(=O)(=O)CCNCc1cc(-c2cc3c(Nc4ccc(OCc5cccc(F)c5)c(Cl)c4)ncnc3s2)cs1 in this assay.
Result: inactive

Q: What did this assay record as the result for CC(=O)Oc1ccc(C23c4ccccc4C2(OC(C)=O)c2cc(OC(C)=O)ccc23)cc1 (stereo not drawn) ?
Result: inactive

Q: What classification did [C](#Cc1ccccc1)[Hg][C]#Cc1ccccc1 end up with in this test?
Result: inactive

Q: In this assay, the call recorded for COc1cc2c(c(OC)c1OC)-c1ncc3c(OC)c(OC)c(OC)cc3c1C2 was what?
Result: inactive

Q: # lookup: test call for O=c1c2cc(F)ccc2sc2c(N3CCNCC3)nc3ccc(F)cc3c12
Result: inactive

Q: Name the outcome recorded for C=CCn1c(C)nc2ccc(Nc3nc(Nc4ccc(F)cc4)nc4ccccc34)cc21 in the assay.
Result: inactive

Q: How was Nc1nonc1-c1nc2cnccc2n1C1CC1 classified in this test?
Result: inactive

----------
# Test system: SK-MEL-5 melanoma
# Measurement Notes: NCI tumour cell line growth inhibition, 48 h
Metric: TGI

Examples with answers:
>>> result("CCCC(CCC(N)=O)(CCC(N)=O)[N+](=O)[O-]")
"> 100 µM"
>>> result("Cc1nc(CC#N)n[nH]1")
"> 100 µM"
>>> result("c1cc2c(cc1NC1=NCCO1)OCO2")
"> 100 µM"
>>> result("COc1ccc(NC(=O)CSC2=C(Nc3cccc(Br)c3)C(=O)N(Cc3ccccc3)C2=O)cc1Cl")
"> 100 µM"
>>> result("O=C1CC(c2ccccc2)C2(C(=O)NC(=S)NC2=O)C(c2ccccc2)C1 (stereo not drawn)")
"> 75 µM"

Bench note, SK-MEL-5 melanoma: entry COC(=O)/C=C(C)/C=C/C1OC(C)OCC1O (stereo not drawn) , its TGI = > 100 µM

Simply: O=C1/C(=C\c2cccc(Oc3ccccc3)c2)SC(c2ccccc2)N1c1ccccc1 (stereo not drawn) , SK-MEL-5 melanoma, TGI = > 100 µM

Hey, SK-MEL-5 melanoma data for CC1CCC2(NC1)OC1CC3C4CC=C5CC(O)CCC5(C)C4CCC3(C)C1C2C (stereo not drawn) : TGI came out at > 100 µM

Cn1c(C(=O)c2ccncc2)cc2ccccc21 tested on SK-MEL-5 melanoma gave TGI: > 100 µM

Record for C=C1C(=O)O[C@H]2C[C@@]3(COC(C)=O)C=COC=C(COC(=O)C(C)C)C3CC12 (stereo partly drawn) under target or system SK-MEL-5 melanoma: TGI reported as > 100 µM
